test system: SR lymphoma cells viability, CellTiter-Glo ATP, 8-48 h; test: SR lymphoma cell viability over time, late-stage follow-up, mechanism study for HRAS target identification, CellTiter-Glo ATP luminescence, 8-48 h, dry powder (AID 720608); conditions: measured here: 48 h treatment
Inconclusive results are not listed.
Record form. Attribute: AC50. Fill in for each entry.
Write it as a number; the unit µM goes unstated.

Could you share which AC50 value was measured for CC(C)(C)OC(=O)NCCOCCOCCOc1ccc(N(C(=O)CCl)C(C(=O)NCCc2ccccc2)c2cccs2)cc1Cl (stereo not given) ?
0.0531

Could you share which AC50 value was measured for `COC(=O)c1ccc([C@@H]2c3[nH]c4ccccc4c3C[C@@H](C(=O)OC)N2C(=O)CCl)cc1` ?
0.0186

Could you share which AC50 value was measured for C#CCCCC(=O)NCCOCCOCCOc1ccc(N(C(=O)CCl)C(C(=O)NCCc2ccccc2)c2cccs2)cc1Cl (stereo not given) ?
0.703

Could you share which AC50 value was measured for COc1ccc(N(C(=O)CCl)C(C(=O)NCCc2ccccc2)c2cccs2)cc1Cl (stereo not given) ?
0.0423

Could you share which AC50 value was measured for `Cc1onc(C(=O)N2CCN(C(c3ccc(Cl)cc3)c3ccc(Cl)cc3)CC2)c1[N+](=O)[O-]` ?
0.0979
